measurement-conditions: 293.15 K; 100 kPa; Liquid; Frequency=3 MHz; Single path-length method
reported-metric: speed of sound (m/s)

>>> recorded_value("CC(C)NC(C)C")
1116.4
>>> recorded_value("CCCCNCCCC")
1260.1
>>> recorded_value("CCCC(C)O (centres undefined)")
1250.3
>>> recorded_value("CCC(C)O (centres undefined)")
1229.9

====

measurement-conditions: 303.15 K; 100 kPa; Liquid; Vibrating tube method
# Lookup of reported mass density keyed by entry
reported-metric: mass density (kg/m3)

>>> recorded_value("CCC(C)O (centres undefined)")
798.651
>>> recorded_value("CCCCNCCCC")
751.374
>>> recorded_value("CC(C)NC(C)C")
707.55
>>> recorded_value("CCCC(C)O (centres undefined)")
801.27

====

measurement-conditions: 293.15 K; 100 kPa; Liquid; Vibrating tube method
± gives the expanded uncertainty stated by the source.
Listing of recorded mass density by entry.
reported-metric: mass density

>>> recorded_value("CCCCNCCCC")
"759.579 ± 1.4 kg/m3"
>>> recorded_value("CCC(C)O (centres undefined)")
"806.952 ± 1.4 kg/m3"
>>> recorded_value("CCCC(C)O (centres undefined)")
"809.399 ± 1.5 kg/m3"
>>> recorded_value("CC(C)NC(C)C")
"717.305 ± 1.4 kg/m3"
